# reported TGI; entries follow
Tested on: SF-539 CNS
method description: NCI tumour cell line growth inhibition, 48 h
property label: TGI (µM)

compound	unit text	modifier sign	reading
CC(=O)OCC1OC(SC2OC(COC(C)=O)C(OC(C)=O)C(OC(C)=O)C2OC(C)=O)C(OC(C)=O)C(OC(C)=O)C1OC(C)=O (stereo unspecified)	µM	>	100
Cc1ccc(O)c(-c2cc(-c3cccc(Cl)c3)c(C#N)c(N)n2)c1	µM	=	52
Cc1noc2nnn(-c3ccc(Cl)cc3)c(=O)c12	µM	=	1.73
O=C1/C(=C/c2cccc(Br)c2)CSC/C1=C\c1cccc(Br)c1	µM	=	13.6
COc1ccc(Nc2c3ccccc3nc3ccccc23)cc1	µM	=	14.6
CCCCCCCCCc1cccc(N2C(N)=NC(N)=NC2(C)C)c1	µM	=	2.1
COCCCNC(=O)CC(=O)NCCCOC	µM	>	100
CN1CCN(c2ccc3nc(-c4ccc5nc(-c6ccc(OCCC(C)(C)C)cc6)[nH]c5c4)[nH]c3c2)CC1	µM	=	26.1
CCCCNC(=S)Nc1nc(C(=O)NNC(=S)NC2CCCCC2)cs1	µM	>	100
Cc1ccc(OC2CC(n3cnc4ncnc(Cl)c43)OC2Oc2ccc(C)cc2)cc1 (stereo unspecified)	µM	=	31.5
CN(C)c1ccc(C(Cc2ccc3ccccc3n2)Cc2ccc3ccccc3n2)cc1	µM	>	100
CCCCCCCCCCCCCC[n+]1ccc2c(C)c3c(c(C)c2c1)c1cc(O)ccc1n3CC	µM	=	1.52
N#CCCN(CCC#N)c1ccc(/C=C2\N=C(c3ccccc3)N(NC(N)=S)C2=O)cc1	µM	>	100
COc1cc(COC(=O)N(CC(=O)O)c2ccccc2)c([N+](=O)[O-])cc1OC	µM	>	100
COCOc1c(C(O[Si](C)(C)C(C)(C)C)c2cnc(Sc3ccccc3)n2C)ccc(OC)c1OC (stereo unspecified)	µM	=	3.71
CC(C)(C)c1cc2c3c(c1)C(C(F)(F)F)(C(F)(F)F)O[Te]3(C)OC2(C(F)(F)F)C(F)(F)F	µM	>	100
NCCCNC1(c2cc3ccccc3s2)CCCCC1	µM	=	4.23
Nc1[nH]c(=S)nc2snnc12	µM	>	100
C=C(Br)N(CC)CC	µM	>	100
CC(=O)OC(CCC1(C)OC1COc1ccc(CCNC(=O)c2ccccc2)cc1)C(C)(C)OC(C)=O (stereo unspecified)	µM	>	100
COC(=O)CCC(=O)CC(=O)C(=O)Nc1c(Cl)cc([N+](=O)[O-])cc1Cl	µM	>	100
CCC(=O)c1c(NOC2OC(COC(C)=O)C(OC(C)=O)C(OC(C)=O)C2OC(C)=O)nc(OC)n(C)c1=O (stereo unspecified)	µM	>	100
COc1cc(OC)c(/C=C/c2cnc3ccccc3n2)c(OC)c1	µM	>	10
O=C(CCC(=O)C(C(=O)c1ccccc1)c1ccccc1)Nc1cccc(C(F)(F)F)c1 (stereo unspecified)	µM	>	100
COC(=O)C1=C(O)C(C(=O)OC)[C@]2(O)[C@H](C(=O)OC)[C@H]1C[C@@H](c1c(Cl)cccc1Cl)[C@H]2C(=O)OC (stereo partly specified)	µM	=	3.78
Cc1cccnc1/N=C/c1c(O)n(C)c(=O)[nH]c1=O	µM	>	100
Fc1ccccc1C1CC(c2ccc3ccccc3c2)=Nc2ccccc2S1 (stereo unspecified)	µM	>	100
CC1(C)[C@@H](O[C@@H]2OC[C@@H](O[C@@H]3O[C@H](CO)[C@@H](O)[C@H](O)[C@H]3O[C@@H]3OC[C@@H](O)[C@H](O)[C@H]3O)[C@H](O)[C@H]2O[C@@H]2O[C@H](CO)[C@@H](O)[C@H](O)[C@H]2O)CC[C@]2(C)[C@H]3CC[C@]45OC[C@@]6(CC[C@](C)(C=O)C[C@H]64)[C@H](O)C[C@@]5(C)[C@]3(C)CC[C@@H]12	µM	=	3.35
CN1C(=O)[C@@H]2[C@@H]3c4ccccc4N(S(=O)(=O)C(F)(F)F)[C@@H]3c3[nH]c4ccccc4c3[C@@H]2C1=O	µM	>	100
CN(CC(=O)N(Cc1ccc(C2CCCCC2)cc1)c1ccc(C(=O)O)c(O)c1)S(=O)(=O)c1c(F)c(F)c(F)c(F)c1F	µM	=	35
COc1cc2c3c(c1OC)-c1c(ccc4c1OCO4)CC3(C#N)N(C(=O)c1ccccc1)CC2 (stereo unspecified)	µM	>	100
CCOC(=O)C(O)(NC(=O)c1ccccc1F)C(F)(F)F (stereo unspecified)	µM	>	100
CCN(C(=O)c1cc(F)ccc1Oc1cncnc1N1CC2(CCN(CC3CCC(NS(=O)(=O)CC)CC3)CC2)C1)C(C)C (stereo unspecified)	µM	>	100
Nc1nc(Cl)cc(NCCC2(CO)CCC2)n1	µM	>	100
CC1OC(OC2C(O[C@H]3CC[C@@]4(C)C(=CC[C@H]5[C@@H]6C[C@@H]7O[C@]8(CC[C@H](C)CN8)[C@@H](C)[C@@H]7[C@@]6(C)CC[C@@H]54)C3)OC(CO)C(O)C2OC2OC(CO)C(O)C(O)C2O)C(O)C(O)C1O (stereo partly specified)	µM	=	33.8
COc1cc2c(cc1Nc1nc(Nc3ccsc3C(N)=O)c3cc[nH]c3n1)N(C(=O)CN(C)C)CCC2(C)C	µM	=	7.05
